Molecular target: PfcProRS (Plasmodium falciparum, UniProt Q8I5R7)
Construct: made in house; host or cells: E. coli SoluBL-21
Sequence (Q8I5R7 249-746): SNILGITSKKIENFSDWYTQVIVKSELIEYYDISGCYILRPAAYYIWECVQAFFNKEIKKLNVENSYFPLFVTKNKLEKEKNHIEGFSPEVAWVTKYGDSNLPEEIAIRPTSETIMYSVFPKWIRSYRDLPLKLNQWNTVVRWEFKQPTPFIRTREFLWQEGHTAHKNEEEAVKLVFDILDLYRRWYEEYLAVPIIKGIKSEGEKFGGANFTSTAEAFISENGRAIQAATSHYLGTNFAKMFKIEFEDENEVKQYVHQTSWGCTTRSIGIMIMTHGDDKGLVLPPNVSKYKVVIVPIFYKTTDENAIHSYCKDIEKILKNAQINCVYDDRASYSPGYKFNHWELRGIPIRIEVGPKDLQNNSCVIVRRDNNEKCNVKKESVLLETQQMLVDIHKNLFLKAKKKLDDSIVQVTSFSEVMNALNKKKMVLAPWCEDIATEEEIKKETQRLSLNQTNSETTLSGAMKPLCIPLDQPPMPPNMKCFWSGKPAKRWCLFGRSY
Type: binding
Conditions: SI Fig 16a; values on -log scale
Rule: PfcProRS -- best Kd under 7 gives Not fulfilled, otherwise Fulfilled.

INSERT INTO measurements (compound, label_class) VALUES
  ('O=C(NC1Cc2ccccc2C1)c1nccnc1NC(=O)N1CCNCC1', 'Not fulfilled'),
  ('CC(C)(C)OC(=O)NCCCCCC(=O)NCC1CCN(C(=O)Nc2nccnc2C(=O)NC2Cc3ccccc3C2)CC1', 'Not fulfilled'),
  ('O=C(CC1NCCCC1O)Cn1cnc2cc(Br)c(Cl)cc2c1=O (stereo not shown)', 'Fulfilled'),
  ('NCCCCCC(=O)NCC1CCN(C(=O)Nc2nccnc2C(=O)NC2Cc3ccccc3C2)CC1', 'Not fulfilled'),
  ('O=C(NC1Cc2ccccc2C1)c1nccnc1NC(=O)N1CCC(CCO)CC1', 'Not fulfilled'),
  ('O=C(NC1Cc2ccccc2C1)c1nccnc1NC(=O)N1CCCCC1', 'Fulfilled'),
  ('O=C(Nc1nccnc1C(=O)NC1Cc2ccccc2C1)c1ccccc1', 'Not fulfilled'),
  ('CC(C)(C)OC(=O)NCCCCCC(=O)NC1CCN(C(=O)Nc2nccnc2C(=O)NC2Cc3ccccc3C2)CC1', 'Not fulfilled'),
  ('O=C(NC1Cc2ccccc2C1)c1nccnc1NC(=O)N1CCC(CNC(=O)[C@@H]2CCCN2)CC1', 'Fulfilled'),
  ('CC1(C(=O)Nc2nccnc2C(=O)NC2Cc3ccccc3C2)CCCCC1', 'Fulfilled'),
  ('CC(C)(C)OC(=O)NC1CCN(C(=O)Nc2nccnc2C(=O)NC2Cc3ccccc3C2)CC1', 'Fulfilled'),
  ('CC(C)(C)OC(=O)N1CCC[C@H]1C(=O)NC1CCN(C(=O)Nc2nccnc2C(=O)NC2Cc3ccccc3C2)CC1', 'Not fulfilled'),
  ('C[C@@H]1CCC[C@H](C)N1C(=O)Nc1nccnc1C(=O)NC1Cc2ccccc2C1', 'Not fulfilled');

====

Target: HsProRS (Homo sapiens, UniProt P07814)
Sequence (P07814 996-1512): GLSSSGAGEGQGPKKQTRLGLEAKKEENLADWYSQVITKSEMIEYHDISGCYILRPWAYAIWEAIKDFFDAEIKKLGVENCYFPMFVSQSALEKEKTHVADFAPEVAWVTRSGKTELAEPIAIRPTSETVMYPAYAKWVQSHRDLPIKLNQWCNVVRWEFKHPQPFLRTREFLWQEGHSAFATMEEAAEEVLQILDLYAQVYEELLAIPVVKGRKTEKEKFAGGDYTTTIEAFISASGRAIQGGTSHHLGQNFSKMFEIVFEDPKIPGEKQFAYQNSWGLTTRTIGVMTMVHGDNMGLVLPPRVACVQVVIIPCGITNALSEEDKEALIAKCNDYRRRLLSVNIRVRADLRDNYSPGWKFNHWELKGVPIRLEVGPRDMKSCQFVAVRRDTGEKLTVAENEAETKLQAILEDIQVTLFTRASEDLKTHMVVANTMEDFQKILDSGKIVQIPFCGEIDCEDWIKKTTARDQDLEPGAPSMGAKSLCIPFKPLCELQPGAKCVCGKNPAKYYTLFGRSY
Test: TR-FRET ligand displacement assay with tracer MAT379 (CoraFluor-1-Halo and anti-His6 antibody formats)
Type: binding
Design: made in house; host or cells: E. coli SoluBL-21
Settings: HsProRS (KD [nM]) + ATP, 500 μM ATP; 250 nM MAT379
PROPERTY NAME: Kd (nM)

INSERT INTO results (compound, reported_result) VALUES
  ('COc1ccc(Cl)cc1C(=O)NCCc1ccc(S(=O)(=O)NC(=O)NC2CCCCC2)cc1 [Glyburide, reference compound]', 30900),
  ('O=C(NC1Cc2ccccc2C1)c1nccnc1NC(=O)N1CCCCC1', 678),
  ('O=C(NC1Cc2ccccc2C1)c1nccnc1NC(=O)C1CCCCC1 [compound 2, reference compound]', 954);

====

Tested on: P. falciparum Dd2-2D4 NCP26 selections S1-3
Assay: ABS growth assay on bulk populations and clones from NCP26 resistance selections S1-3
Assay type: cell-based, Plasmodium falciparum
Conditions: Plasmodium falciparum, DD2, cell line S2 - Clone B9; read-out: EC50 [nM] mean
Below is a list of entries, each paired with its recorded EC50 value.
PROPERTY NAME: EC50 (nM)

INSERT INTO assay_data (compound, property_name, quantity_unit, reported_result) VALUES
  ('C[C@H]1[C@@H](O)O[C@@H]2O[C@@]3(C)CC[C@H]4[C@H](C)CC[C@@H]1[C@@]24OO3 [DHA, dihydroartemisinin, reference compound]', 'EC50', 'nM', 10.1),
  ('C[C@@H]1C[C@H](C)C[C@H](C)[C@@H](O)CC(=O)O[C@H]([C@@H]2CCC[C@H]2C(=O)O)C/C=C/C=C(/C#N)[C@H](O)[C@@H](C)C1 [Borrelidin, borrelidin, reference compound]', 'EC50', 'nM', 4.67),
  ('Nc1ncnc2c1ncn2[C@@H]1O[C@H](COS(=O)(=O)NC(=O)[C@@H]2CCCN2)[C@@H](O)[C@H]1O [ProSA, reference compound]', 'EC50', 'nM', 267),
  ('O=C(CC1NCCCC1O)Cn1cnc2cc(Br)c(Cl)cc2c1=O (centres unmarked) [Halofuginone]', 'EC50', 'nM', 0.694),
  ('O=C(NC1Cc2ccccc2C1)c1nccnc1NC(=O)N1CCCCC1 [NCP26]', 'EC50', 'nM', 2930);
